target.or.system: Methionine aminopeptidase 2 (Homo sapiens)
test.description: Inhibition of MetAP2 activity in HUVEC assessed as inhibition of cell proliferation by MTT assay
measurement.kind: EC50 (nM)
// return numeric value only (unit: nM, not printed)

Returns the measured EC50 for the input molecule. Input: CO[C@@H]1[C@H](OC(=O)N[C@@H](C(N)=O)C(C)C)CC[C@]2(CO2)[C@H]1[C@@]1(C)O[C@@H]1C[C@@H]1OC1(C)C 6.5

And what about the molecule CO[C@@H]1[C@H](OC(=O)N[C@@H](C(N)=O)C(C)C)CC[C@]2(CO2)[C@H]1[C@@]1(C)O[C@@H]1C/C=C(\C)CO ? 7.1

Moving on to the next molecule: CO[C@@H]1[C@H](OC(=O)N[C@@H](C(N)=O)C(C)C)CC[C@]2(CO2)[C@H]1[C@@]1(C)O[C@@H]1C[C@H]1OC1(C)C 1.3

Now give it for CO[C@@H]1[C@H](OC(=O)N[C@@H](C(N)=O)C(C)C)CC[C@]2(CO2)[C@H]1[C@@]1(C)O[C@@H]1CC=C(C)C too. 0.095
